Cited source: patent US5554608A

# Tested on: flank organ hair growth
# METHOD: Golden Syrian hamster assay (flank organ hair growth, topical)
# Type: in vivo
# CONDITION_DETAILS: dose 10% in vehicle A, thirteen applications, treated flank organ, pH differs per compound (4.0-8.5)

{"MOLECULE": "CC1CNCCN1S(=O)(=O)c1cccc2cnccc12 (stereo not drawn)", "Hair Mass (mean ± SEM) Treated": "0.81 ± .08 mg"}
{"MOLECULE": "CN1CCN(CCCN2c3ccccc3Sc3ccc(C(F)(F)F)cc32)CC1", "Hair Mass (mean ± SEM) Treated": "1.03 ± .16 mg"}
{"MOLECULE": "CC1(C)[C@@H](O[C@H]2O[C@H](C(=O)O)[C@@H](O)[C@H](O)[C@H]2O[C@@H]2O[C@H](C(=O)O)[C@@H](O)[C@H](O)[C@H]2O)CC[C@]2(C)[C@H]3C(=O)C=C4[C@@H]5C[C@@](C)(C(=O)O)CC[C@]5(C)CC[C@@]4(C)[C@]3(C)CC[C@@H]12 [Glycyrrhetinic acid glycoside]", "Hair Mass (mean ± SEM) Treated": "0.94 ± .17 mg"}
